Attribution: ChEMBL document CHEMBL1148083

Test: Inhibition of PHA-induced human lymphocyte proliferation
Assay type: functional, cell-based
Measurement Kind: IC50 (µg/mL)
Value expressed in µg/mL; do not type the unit.

Consider the worked cases shown below.
{"columns": ["Compound", "Unit Symbol", "IC50"],
 "data": [
  ["COc1c(O[C@@H]2O[C@@H](C)[C@H](O)[C@@H](O)[C@H]2OC(C)=O)cc2oc(-c3ccc(O)c(O)c3)c(O[C@@H]3O[C@@H](C)[C@H](OC(C)=O)[C@@H](O)[C@H]3O)c(=O)c2c1O [KALAMBROSIDE A]", "µg/mL", 0.5],
  ["COc1c(O[C@@H]2O[C@@H](C)[C@H](O)[C@@H](OC(C)=O)[C@H]2O)cc2oc(-c3ccc(O)c(O)c3)c(O[C@@H]3O[C@@H](C)[C@H](O)[C@@H](O)[C@H]3O)c(=O)c2c1O", "µg/mL", 10],
  ["COc1c(O[C@@H]2O[C@@H](C)[C@H](O)[C@@H](O)[C@H]2OC(C)=O)cc2oc(-c3ccc(O)c(O)c3)c(O[C@@H]3O[C@@H](C)[C@H](O)[C@@H](O)[C@H]3O)c(=O)c2c1O [KALAMBROSIDE B]", "µg/mL", 1]
]}

Form field IC50, entry "COc1c(O[C@@H]2O[C@@H](C)[C@H](O)[C@@H](OC(C)=O)[C@H]2O)cc2oc(-c3ccc(O)c(O)c3)c(O[C@@H]3O[C@@H](C)[C@H](OC(C)=O)[C@@H](O)[C@H]3O)c(=O)c2c1O" : 0.25
